For each of the molecules below, state its pIC50.
Test System: human NK-2 receptor (Homo sapiens, UniProt P21452)
Construct: expressed in transfected cells; host or cells: CHO-hNK-2R cells (CHO-derived), membrane preparation
Sequence (P21452 whole entry): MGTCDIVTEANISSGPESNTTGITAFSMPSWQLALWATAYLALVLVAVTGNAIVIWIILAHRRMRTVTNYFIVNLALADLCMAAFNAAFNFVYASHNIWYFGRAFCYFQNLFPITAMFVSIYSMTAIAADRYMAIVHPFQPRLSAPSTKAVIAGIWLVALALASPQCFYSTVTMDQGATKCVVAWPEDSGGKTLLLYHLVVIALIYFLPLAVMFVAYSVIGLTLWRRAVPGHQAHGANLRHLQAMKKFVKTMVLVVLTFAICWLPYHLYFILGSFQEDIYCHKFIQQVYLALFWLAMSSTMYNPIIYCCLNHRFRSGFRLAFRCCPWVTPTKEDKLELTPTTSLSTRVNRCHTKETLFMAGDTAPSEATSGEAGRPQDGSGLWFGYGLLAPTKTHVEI
Test Description: NK-2 Receptor Binding Assay (CHO-hNK-2R membranes, iodohistidyl-neurokinin A)
Experimental Context: values in parentheses, amount necessary to inhibit fifty percent of the binding of neurokinin A
Experimental: The CHO-hNK-2R cells, a CHO-derived cell line transformed with the human NK-2 receptor, expressing about 400,000 such receptors per cell, were grown in 75 cm flasks or roller bottles in minimal essential medium (alpha modification) with 10% fetal bovine serum. The gene sequence of the human NK-2 receptor is given in N.P. Gerard, et al., Journal of Biological Chemistry, 265:20455-20462 (1990). […]
Numbers only, as −log10 of the molar value.

Query :: Using the record for COc1cc(-c2nc3ccc(OCCN4CCC(N5CCCCC5)CC4)cc3n2Cc2ccccc2)cc(OC)c1OC [Example 77] , report its pIC50.
Result :: 5.20

Query :: Using the record for COc1cc(-c2nc3ccc(OCCN4CCCCC4)cc3n2Cc2ccccc2Br)cc(OC)c1OC [Example 115] , report its pIC50.
Result :: 5.37

Query :: Using the record for Cc1cccc(-c2nc3ccc(OCCCN4CCCCCC4)cc3n2Cc2ccccc2)c1 [Example 101] , report its pIC50.
Result :: 5.98

Query :: Using the record for Cc1cccc(-c2nc3ccc(OCCCN4CCCC4)cc3n2Cc2ccccc2)c1 [Example 100] , report its pIC50.
Result :: 5.17

# ---- query molecule ----
Query :: Using the record for COc1cc(-c2nc3ccc(OCCCl)cc3n2Cc2ccccc2)cc(OC)c1OC [Example 76] , report its pIC50.
Result :: 5.13

Attribution: patent EP0694535A1
